Activity for assorted compounds
- System: Canis familiaris
- Test Details: Diuretic activity in mongrel dog assessed as sodium level in excreted urine at 1 mg/kg, iv measured […] after dosage (reference value: 3 to 95 uequiv/min)
- Format: functional, Canis lupus familiaris
Respond numerically; units are uEq/min and should not be typed.

Worked examples follow.
> print(dat)
                                   compound               tgt  endpoint.value
1  CC/C(=C\c1ccc(OC(C)C(=O)O)c(Cl)c1Cl)[N+](=O)[O-] (stereo not given)  Canis familiaris             490
2  CCCC/C(=C\c1ccc(OCC(=O)O)c(Cl)c1Cl)[N+](=O)[O-]  Canis familiaris             322
3  C/C(=C\c1ccc(OCC(=O)O)c(Cl)c1Cl)[N+](=O)[O-]  Canis familiaris            2128

Task: May I ask what Activity has been recorded for C=C(CC)C(=O)c1ccc(OCC(=O)O)c(Cl)c1Cl ?
Result: 188

Task: May I ask what Activity has been recorded for CC/C(=C\c1ccc(OCC(=O)O)c(Cl)c1Cl)[N+](=O)[O-] ?
Result: 1174

Task: May I ask what Activity has been recorded for CC/C(=C\c1ccc(OCC(=O)O)c(C)c1C)[N+](=O)[O-] ?
Result: 1583

Task: May I ask what Activity has been recorded for CC/C(=C\c1ccc(OCC(=O)O)cc1Cl)[N+](=O)[O-] ?
Result: 1398

###

- System: Canis familiaris
- Test Details: Diuretic activity in mongrel dog assessed as sodium level in excreted urine at 1 mg/kg, iv measured […] after dosage (reference value: 3 to 95 uequiv/min)
- Assay type: functional, Canis lupus familiaris
Endpoint: Activity (uEq/min)
Respond numerically; units are uEq/min and should not be typed.

Worked examples follow.
> print(dat)
                               entry.smiles  endpoint.value
1    C/C(=C\c1ccc(OCC(=O)O)cc1)[N+](=O)[O-]              82
2  CCCCC/C(=C\c1ccc(OCC(=O)O)c(Cl)c1Cl)[N+](=O)[O-]             179
3  C/C(=C\c1cc(Cl)ccc1OCC(=O)O)[N+](=O)[O-]              22
4  CC/C(=C\c1ccc(OCC(=O)O)c2ccccc12)[N+](=O)[O-]            1848
5  C/C(=C\c1ccc(OCC(=O)O)c(Cl)c1)[N+](=O)[O-]             734

Task: May I ask what Activity has been recorded for C/C(=C\c1ccc(OCC(=O)O)cc1Cl)[N+](=O)[O-] ?
Result: 683

###

- Test system: Canis familiaris
- Test Details: Diuretic activity in mongrel dog assessed as sodium level in excreted urine at 1 mg/kg, po measured for 6 hrs (reference value: 2 mequivalents)
- Assay type: functional, Canis lupus familiaris
Endpoint: Activity
Answer format: number, then unit.

> print(dat)
                               entry.smiles      endpoint.value
1  CC(=O)C(=Cc1ccc(OCC(=O)O)c(Cl)c1Cl)C(C)=O  30 milliequivalent
2  CC/C(=C\c1ccc(OCC(=O)O)c(Cl)c1Cl)[N+](=O)[O-]  26 milliequivalent
3  C/C(=C\c1ccc(OCC(=O)O)c2ccccc12)[N+](=O)[O-]  33 milliequivalent

Task: May I ask what Activity has been recorded for CCCCC/C(=C\c1ccc(OCC(=O)O)c(Cl)c1Cl)[N+](=O)[O-] ?
Result: 10 milliequivalent

Task: May I ask what Activity has been recorded for C/C(=C\c1ccc(OCC(=O)O)cc1Cl)[N+](=O)[O-] ?
Result: 16 milliequivalent

Task: May I ask what Activity has been recorded for C=C(CC)C(=O)c1ccc(OCC(=O)O)c(Cl)c1Cl ?
Result: 21 milliequivalent

###

Activity for assorted compounds
- Test system: Canis familiaris
- Test Details: Diuretic activity in mongrel dog assessed as potassium level in excreted urine at 5 mg/kg, iv measured between 15 to 45 mins after dosage (reference value: 12 to 70 uequiv/min)
- Type: functional, Canis lupus familiaris
Answer format: number, then unit.

Worked examples follow.
> print(dat)
                                   compound  endpoint  endpoint.value
1  CC/C(=C\c1cc(Cl)ccc1OCC(=O)O)[N+](=O)[O-]  Activity      48 uEq/min
2  C/C(=C\c1ccc(OC(C)C(=O)O)c(Cl)c1Cl)[N+](=O)[O-] (configuration not stated)  Activity      74 uEq/min
3  C/C(=C\c1cc(Cl)cc(Cl)c1OCC(=O)O)[N+](=O)[O-]  Activity      25 uEq/min
4  CC/C(=C\c1ccc(OCCCC(=O)O)c(Cl)c1Cl)[N+](=O)[O-]  Activity      29 uEq/min

Task: // lookup Activity | system=Canis familiaris | key= O=C(O)COc1c(Cl)cc(Cl)cc1/C=C/[N+](=O)[O-]
Result: 33 uEq/min

Task: // lookup Activity | system=Canis familiaris | key= CC(=O)/C=C/c1ccc(OCC(=O)O)c(Cl)c1Cl
Result: 76 uEq/min

Task: // lookup Activity | system=Canis familiaris | key= O=C(O)COc1ccc(/C=C/[N+](=O)[O-])cc1
Result: 35 uEq/min

###

- Tested on: Canis familiaris
- Test Details: Diuretic activity in mongrel dog assessed as chloride level in excreted urine at 1 mg/kg, po measured for 6 hrs (reference value: 2 mequivalents)
- Format: functional, Canis lupus familiaris
Activity for assorted compounds
Respond numerically; units are milliequivalent and should not be typed.

Worked examples follow.
> print(dat)
                               entry.smiles               tgt  endpoint  endpoint.value
1  CCCCC/C(=C\c1ccc(OCC(=O)O)c(Cl)c1Cl)[N+](=O)[O-]  Canis familiaris  Activity               9
2      C=C(CC)C(=O)c1ccc(OCC(=O)O)c(Cl)c1Cl  Canis familiaris  Activity              26
3  C/C(=C\c1ccc(OCC(=O)O)cc1Cl)[N+](=O)[O-]  Canis familiaris  Activity              22
4  C/C(=C\c1ccc(OCC(=O)O)c2ccccc12)[N+](=O)[O-]  Canis familiaris  Activity              39

Task: May I ask what Activity has been recorded for CC/C(=C\c1ccc(OCC(=O)O)c(Cl)c1Cl)[N+](=O)[O-] ?
Result: 28

###

- Test system: Canis familiaris
- Test Details: Diuretic activity in mongrel dog assessed as volume of excreted urine at 10 mg/kg, iv measured between 15 to 45 mins after dosage (reference value: 1 to 4 ml/min)
- Assay type: functional, Canis lupus familiaris
Activity for assorted compounds
Answer format: number, then unit.

Worked examples follow.
> print(dat)
                              entry.smiles  endpoint.value
1   C/C(=C\c1ccc(C(=O)O)cc1Cl)[N+](=O)[O-]        7 mL/min
2    O=C(O)COc1ccc(/C=C/[N+](=O)[O-])cc1Cl        3 mL/min
3  CC/C(=C\c1ccc(C(=O)O)cc1Cl)[N+](=O)[O-]        3 mL/min

Task: May I ask what Activity has been recorded for C=C(CC)C(=O)c1ccc(OCC(=O)O)c(Cl)c1Cl ?
Result: 22 mL/min

Task: May I ask what Activity has been recorded for CC/C(=C\c1cccc(OCC(=O)O)c1)[N+](=O)[O-] ?
Result: 7 mL/min

Task: May I ask what Activity has been recorded for C/C(=C\c1ccc(OCC(=O)O)cc1)[N+](=O)[O-] ?
Result: 6 mL/min

Task: May I ask what Activity has been recorded for CC/C(=C\c1cc(Cl)cc(Cl)c1OCC(=O)O)[N+](=O)[O-] ?
Result: 3 mL/min

###

Activity for assorted molecules
- System: Canis familiaris
- Test Details: Diuretic activity in mongrel dog assessed as sodium level in excreted urine at 1 mg/kg, iv measured […] after dosage (reference value: 3 to 95 uequiv/min)
- Assay type: functional, Canis lupus familiaris
Respond numerically; units are uEq/min and should not be typed.

Worked examples follow.
> print(dat)
                               entry.smiles  endpoint  endpoint.value
1  C/C(=C\c1ccc(OCC(=O)O)c2ccccc12)[N+](=O)[O-]  Activity            1612
2  O=C(O)COc1ccc(/C=C/[N+](=O)[O-])c(Cl)c1Cl  Activity             132

Query molecule follows.
Task: May I ask what Activity has been recorded for CC/C(=C\c1ccc(OCC(=O)O)c(Cl)c1)[N+](=O)[O-] ?
Result: 1618
